Tested on: MCF7 breast
Assay: NCI-60 one-dose screen, 48 h (100 = growth as untreated, 0 = no growth, -100 = all killed)
Settings: 10 µM unless noted
Compounds without any hit were thinned out: in the full panel of roughly 83,000, 20% have a hit. Active and inactive are the calls of the source. How the source made its calls: active means growth percent below 10; inactive means the rest.

MOLECULE	TGT	growth
CCOC(=O)CC1CSC(N/N=C/c2ccc(O)cc2)=N1 (stereo unspecified)	MCF7 breast	91% (inactive)
C=C(C)Cn1c(SCC(=O)c2cccs2)nc2sc3c(c2c1=O)CCCC3	MCF7 breast	46.7% (inactive)
COc1cccc(-c2nn(-c3ccccc3)cc2-c2ccnc(-c3cccnc3)c2)c1	MCF7 breast	87.1% (inactive)
CO[C@H]1/C=C/O[C@@]2(C)Oc3c(C)c(O)c4c(O)c(c5c(nc6cc(C)ccn65)c4c3C2=O)NC(=O)/C(C)=C\C=C\[C@H](C)[C@H](O)[C@@H](C)C(O)[C@@H](C)[C@H](OC(C)=O)[C@@H]1C (stereo partly specified)	MCF7 breast	103% (inactive)
CCCCCCCC/C=C\CCCCCCCCOc1ccc(CC(=O)NCC[N+]2(C)CCCC2)cc1	MCF7 breast	57.1% (inactive)
O=C(Nc1cccc(Cl)c1)Oc1c(Cl)c(Cl)c(Cl)c(Cl)c1Cl	MCF7 breast	84.9% (inactive)
CS(=O)(=O)c1ccc(/C(=N/NC(N)=S)c2ccc(F)cc2)cc1	MCF7 breast	89.9% (inactive)
O=C1NCCN1/N=C/c1c(Cl)n(Cc2ccc(Cl)cc2)c2ccccc12	MCF7 breast	84.7% (inactive)
Nc1ncnc2c1N=C(c1ccc([N+](=O)[O-])cc1)CC(c1ccc3c(c1)OCO3)N2 (stereo unspecified)	MCF7 breast	72.7% (inactive)
CCOC(=O)c1cc(C(=O)c2cc(OC)cc(OC)c2)n2ncccc12	MCF7 breast	24.8% (inactive)
CCCc1cc(CCC)n2nc(N)nc2n1	MCF7 breast	95.6% (inactive)
CC(=O)Cc1nsc(NC(=O)c2cc(-c3cc(Cl)ccc3Cl)oc2C)n1	MCF7 breast	97.7% (inactive)
Cc1ccc(C23CCC(=O)N2CCc2cncn23)cc1 (stereo unspecified)	MCF7 breast	97.9% (inactive)
CSc1nc(CC(C)C)c(C#N)c(=O)n1C	MCF7 breast	38.7% (inactive)
CC(C)=CC(=O)C1C(=O)c2ccccc2C1=O	MCF7 breast	93.4% (inactive)
O=S(=O)(c1ccc(NCSc2nc3ccccc3s2)cc1)c1ccc(NCSc2nc3ccccc3s2)cc1	MCF7 breast	97.5% (inactive)
NC(=N\N=C/c1ccc(Cl)cc1Cl)/C(N)=N\N=C/c1ccc(Cl)cc1Cl	MCF7 breast	87% (inactive)
O=C(O)c1nn(-c2ccc(Cl)cc2)nc1N1CCCC1	MCF7 breast	91% (inactive)
O=C(CNc1ncco1)Nc1ccc(S(=O)(=O)c2ccc(NC(=O)CNc3ncco3)cc2)cc1	MCF7 breast	18.9% (inactive)
CCOC(=O)c1c(Nc2nc3ccccc3s2)sc2c1CCC(=O)C2	MCF7 breast	39.3% (inactive)
CCOC(=O)c1c(NC(=S)Nc2ccc([N+](=O)[O-])cc2)sc2c1CCCCC2	MCF7 breast	70.1% (inactive)

====

Test system: NCI-H522 lung
Assay: NCI-60 one-dose screen, 48 h
Conditions: 10 µM unless noted
About 83,000 compounds went through this panel and 20% of them were active in at least one assay; those are over-represented in the sample as a whole. The source made the active and inactive calls. How the source made its calls: active means growth percent below 10; inactive means the rest.
Classes used: Yes (active), No (inactive)

MOLECULE	CLASS NAME
CCN1CCN(C(=O)[C@]23CC[C@@H](C)[C@H](C)[C@@H]2C2=CC[C@@H]4[C@@]5(C)C/C(=C/c6ccncc6)C(=O)C(C)(C)[C@@H]5CC[C@@]4(C)[C@]2(C)CC3)CC1	No
N#CSCc1cc(Cl)c(CSC#N)cc1Cl	No
CCN1C(=O)N(CC)C2C1NN=c1s/c(=C\c3ccc(F)cc3)c(=O)n12 (stereo unspecified)	Yes
Cc1ccc(OCCOCCOCCOCCOc2ccc(C)n(O)c2=S)c(=S)n1O	No
CC1(C)CC[C@]2(CO)CC[C@]3(C)C(=CC[C@@H]4[C@@]5(C)CCNCC(C)(C)[C@@H]5CC[C@]43C)[C@@H]2C1	No
C/C=C(/C)C(=O)O[C@@H]1CC(C)(C)CC2C34OC(=O)[C@@]21CC[C@@]3(C)[C@]1(C)CCC2C(C)(C)C(=O)CC[C@]2(C)C1C[C@@H]4O (stereo partly specified)	No
Nc1nc(N)c2c(n1)NC(c1ccc3c(c1)OCO3)CC(c1cccc(Nc3ccncc3)c1)=N2 (stereo unspecified)	No
O=C(O)c1cc2ccccc2s1	No
COC(=O)c1nc(-c2ccccc2)oc1S(=O)(=O)N1CCN(c2ccc(OC)cc2)CC1	No
COc1ccc(NC(=O)c2ccc(Cl)cc2Cl)cc1	No
COc1cc(CNC(=O)CCCC/C=C/C(C)C)ccc1OCc1cn(-c2ccc(C(F)(F)F)cc2)nn1	No
CCN(CC)c1ccc(/C=N/NC(=O)c2ccccc2Nc2ccnc(C(F)(F)F)c2)c(O)c1	No
CC1(C)CC[C@]2(CO)CC[C@]3(C)[C@H](CC[C@@H]4[C@@]5(C)CC[C@H](O)C(C)(C)[C@@H]5CC[C@]43C)[C@H]2[C@H]1O	No
CN1CCN(Cc2ccc(NC(=O)c3cc(C#Cc4cnc(N)c5ncccc45)n(C)n3)cc2C(F)(F)F)CC1	No
C#CCOc1cccc(Nc2c(Cl)c(CCl)nc3ccc(Oc4ccccc4)cc23)c1	Yes
Brc1ccc(-c2nn(-c3ccccc3)cc2-c2nn[nH]n2)s1	No
CCCCCCC/C=N/NC(=O)c1ccc(-n2cc(-c3ccccc3)nn2)cc1	No
C=C(C[n+]1ccccc1)[C@@H]1CC[C@]2(C(=O)OC)CC[C@]3(C)[C@H](CC[C@@H]4[C@@]5(C)CCC(=O)C(C)(C)[C@@H]5CC[C@]43C)[C@@H]12	No
CNC(=O)c1cc(Oc2ccc3nc(NC(=O)Nc4ccc(F)cc4F)sc3c2)ccn1	No
NS(=O)(=O)Oc1cccc(-c2nc3sccn3c2-c2ccccc2)c1	No
COc1cccc(C(=O)Nc2cccc(NC(=O)c3ccccn3)c2)c1	No
COc1cc(-c2c(-c3ccccc3)c[nH]c2C(=O)NCCCO)c(OC)c2c1OCO2	No
COc1ccc(N2C(=O)/C(=C/C(Cl)=C/c3ccc([N+](=O)[O-])cc3)SC2=S)cc1	Yes
COc1ccc(/C(C)=C(\c2ccc(Cl)cc2)c2ccc(OCCCN(C)C)cc2)cc1	No
CNC(=O)c1cc(Oc2ccc3nc(NC(=O)c4cc(C(F)(F)F)cc(C(F)(F)F)c4)sc3c2)ccn1	Yes
COc1ccc(NC(=O)CSc2oc(-c3ccccc3)nc2S(=O)(=O)c2ccc(Cl)cc2)c(OC)c1	No
O=C1NC(=O)C(=Cc2cc(-c3ccc(Cl)cc3)n(-c3ccccc3)n2)C(=O)N1	No
Cc1c(C(=O)C(SC(=S)N2CCOCC2)SC(=S)N2CCOCC2)nnn1-c1ccc([N+](=O)[O-])cc1	No
C=C(c1ccc(C(=O)O)c(F)c1)c1cc2c(cc1C)C(C)(C)C=CC2(C)C	No
COC(=O)[C@@H](Cc1c[nH]c2ccccc12)NC[C@@H](O)CN1C(=O)/C(=C\c2cc(OC)c(OC)c(OC)c2)c2ccccc21	No
O=C(Nc1ccc2c(c1)-c1ccccc1C2)C1CC(=O)N(c2ccc3c(c2)OCO3)C1 (stereo unspecified)	No
Nc1ncc(-c2ccc3ncnc(N4CCc5cc(F)c(Cl)cc54)c3c2)cn1	No
CC/C(=C(/c1ccc(Cl)cc1)c1ccc(OCCN2CCCC2)cc1)c1ccccc1	No
O=C(/C=C/c1ccco1)Nc1ncc(Cc2ccc(F)cc2)s1	Yes
CCn1c2ccccc2c2cc(C(O)c3cccc4ncccc34)ccc21 (stereo unspecified)	Yes
Cc1nn(-c2ccccc2)c(Oc2ccccc2)c1/C=N/NC(=O)Cn1c(=O)sc2ccccc21	No
